- Tested on: 876862-298-R-J1-PDC complex spheroids, viability % test/control
- test.name: Anticancer human tumor 876862-298-R-J1-PDC patient-derived endometrial carcinoma cell line growth inhibition [CLK]; active = viability on the fitted dose curve at most 10% of control; inactive = the rest
- experimental.conditions: second compound 0.316 µM; first compound 0.0316 µM
Classes used: class 1 = active, class 0 = inactive

INSERT INTO measurements (compound, class_name) VALUES
  ('CC1COCCN1c1cc(C2(S(C)(=N)=O)CC2)nc(-c2ccnc3[nH]ccc23)n1 (centres undefined) + CN1CCN(c2cc(C(=O)Nc3cc4cc(-c5cnn(C)c5)ccc4cn3)ccn2)CC1', 'class 1'),
  ('Cn1ncnc1[C@H]1c2n[nH]c(=O)c3cc(F)cc(c23)N[C@@H]1c1ccc(F)cc1 + CNC(=O)c1ccc(Nc2nc(OC3CCCC3)c3c(-c4ccc5nc(C)oc5c4)c[nH]c3n2)c(OC)c1', 'class 0'),
  ('CC1(C)CCC(CN2CCN(c3ccc(C(=O)NS(=O)(=O)c4ccc(NCC5CCOCC5)c([N+](=O)[O-])c4)c(Oc4cnc5[nH]ccc5c4)c3)CC2)=C(c2ccc(Cl)cc2)C1 + CN1CCN(c2cc(C(=O)Nc3cc4cc(-c5cnn(C)c5)ccc4cn3)ccn2)CC1', 'class 1'),
  ('CC(=O)O[C@H]1C(=O)[C@@]2(C)[C@H]([C@H](OC(=O)c3ccccc3)[C@]3(O)C[C@H](OC(=O)[C@H](O)[C@@H](NC(=O)c4ccccc4)c4ccccc4)C(C)=C1C3(C)C)[C@]1(OC(C)=O)CO[C@@H]1C[C@@H]2O + CNC(=O)c1ccc(Nc2nc(OC3CCCC3)c3c(-c4ccc5nc(C)oc5c4)c[nH]c3n2)c(OC)c1', 'class 0'),
  ('CC1COCCN1c1cc(C2(S(C)(=N)=O)CC2)nc(-c2ccnc3[nH]ccc23)n1 (centres undefined) + CNC(=O)c1ccc(Nc2nc(OC3CCCC3)c3c(-c4ccc5nc(C)oc5c4)c[nH]c3n2)c(OC)c1', 'class 0'),
  ('COc1c(OCCCN2CCOCC2)ccc2c3n(c(=NC(=O)c4cnc(N)nc4)nc12)CCN3 + CN1CCN(c2cc(C(=O)Nc3cc4cc(-c5cnn(C)c5)ccc4cn3)ccn2)CC1', 'class 1'),
  ('O=C(c1cc(Cc2n[nH]c(=O)c3ccccc23)ccc1F)N1CCN(C(=O)C2CC2)CC1 + CN1CCN(c2cc(C(=O)Nc3cc4cc(-c5cnn(C)c5)ccc4cn3)ccn2)CC1', 'class 1'),
  ('C=C(F)C(=O)N1CCN(c2nc(OCC3CCCN3C)nc3c2CCN(c2cccc4cccc(Cl)c24)C3)CC1CC#N (centres undefined) + CNC(=O)c1ccc(Nc2nc(OC3CCCC3)c3c(-c4ccc5nc(C)oc5c4)c[nH]c3n2)c(OC)c1', 'class 0'),
  ('CCN1CCN(Cc2ccc(Nc3ncc(F)c(-c4cc(F)c5nc(C)n(C(C)C)c5c4)n3)nc2)CC1 + CN1CCN(c2cc(C(=O)Nc3cc4cc(-c5cnn(C)c5)ccc4cn3)ccn2)CC1', 'class 1'),
  ('Nc1ccn(C2OC(CO)C(O)C2(F)F)c(=O)n1 (centres undefined) + CNC(=O)c1ccc(Nc2nc(OC3CCCC3)c3c(-c4ccc5nc(C)oc5c4)c[nH]c3n2)c(OC)c1', 'class 0'),
  ('CCCS(=O)(=O)Nc1ccc(F)c(C(=O)c2c[nH]c3ncc(-c4ccc(Cl)cc4)cc23)c1F + CNC(=O)c1ccc(Nc2nc(OC3CCCC3)c3c(-c4ccc5nc(C)oc5c4)c[nH]c3n2)c(OC)c1', 'class 0'),
  ('COC1C=CCC(C)C(C)S(=O)(=O)NC(=O)c2ccc3c(c2)N(CC2CCC21)CC1(CCCc2cc(Cl)ccc21)CO3 (centres undefined) + CN1CCN(c2cc(C(=O)Nc3cc4cc(-c5cnn(C)c5)ccc4cn3)ccn2)CC1', 'class 1'),
  ('COc1ccc([C@@H](O)c2cc(-c3ncnc4cc(N5CCOCC5)ccc34)c(F)cc2Cl)nn1 + CN1CCN(c2cc(C(=O)Nc3cc4cc(-c5cnn(C)c5)ccc4cn3)ccn2)CC1', 'class 1'),
  ('CC(Nc1ccc2c(c1)OCCn1cc(N3C(=O)OCC3C(F)F)nc1-2)C(N)=O (centres undefined) + CNC(=O)c1ccc(Nc2nc(OC3CCCC3)c3c(-c4ccc5nc(C)oc5c4)c[nH]c3n2)c(OC)c1', 'class 0'),
  ('C=C(F)C(=O)N1CCN(c2nc(OCC3CCCN3C)nc3c2CCN(c2cccc4cccc(Cl)c24)C3)CC1CC#N (centres undefined) + CN1CCN(c2cc(C(=O)Nc3cc4cc(-c5cnn(C)c5)ccc4cn3)ccn2)CC1', 'class 1'),
  ('CC1(C)CCC(CN2CCN(c3ccc(C(=O)NS(=O)(=O)c4ccc(NCC5CCOCC5)c([N+](=O)[O-])c4)c(Oc4cnc5[nH]ccc5c4)c3)CC2)=C(c2ccc(Cl)cc2)C1 + CNC(=O)c1ccc(Nc2nc(OC3CCCC3)c3c(-c4ccc5nc(C)oc5c4)c[nH]c3n2)c(OC)c1', 'class 0'),
  ('CC(Nc1ccc2c(c1)OCCn1cc(N3C(=O)OCC3C(F)F)nc1-2)C(N)=O (centres undefined) + CN1CCN(c2cc(C(=O)Nc3cc4cc(-c5cnn(C)c5)ccc4cn3)ccn2)CC1', 'class 1'),
  ('CC(=O)O[C@H]1C(=O)[C@@]2(C)[C@H]([C@H](OC(=O)c3ccccc3)[C@]3(O)C[C@H](OC(=O)[C@H](O)[C@@H](NC(=O)c4ccccc4)c4ccccc4)C(C)=C1C3(C)C)[C@]1(OC(C)=O)CO[C@@H]1C[C@@H]2O + CN1CCN(c2cc(C(=O)Nc3cc4cc(-c5cnn(C)c5)ccc4cn3)ccn2)CC1', 'class 1'),
  ('COc1ccc([C@@H](O)c2cc(-c3ncnc4cc(N5CCOCC5)ccc34)c(F)cc2Cl)nn1 + CNC(=O)c1ccc(Nc2nc(OC3CCCC3)c3c(-c4ccc5nc(C)oc5c4)c[nH]c3n2)c(OC)c1', 'class 0');

====

Examples of compounds with documented viability, T/C follow.
- Test system: 876862-298-R-J1-PDC complex spheroids, viability % test/control
- test.name: Anticancer human tumor 876862-298-R-J1-PDC cell line growth inhibition [CLK];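 note: spheroids exposed to drugs for 7 days before readout; 100% = DMSO vehicle control wells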
- experimental.conditions: second compound 0.0316 µM; first compound 1 µM; stronger effect = lower value
recorded.endpoint: viability, T/C

INSERT INTO results (compound, value_reported) VALUES
  ('CC(=O)O[C@H]1C(=O)[C@@]2(C)[C@H]([C@H](OC(=O)c3ccccc3)[C@]3(O)C[C@H](OC(=O)[C@H](O)[C@@H](NC(=O)c4ccccc4)c4ccccc4)C(C)=C1C3(C)C)[C@]1(OC(C)=O)CO[C@@H]1C[C@@H]2O + CNC(=O)c1ccc(Nc2nc(OC3CCCC3)c3c(-c4ccc5nc(C)oc5c4)c[nH]c3n2)c(OC)c1', '36.5%'),
  ('O=C(c1cc(Cc2n[nH]c(=O)c3ccccc23)ccc1F)N1CCN(C(=O)C2CC2)CC1 + CN1CCN(c2cc(C(=O)Nc3cc4cc(-c5cnn(C)c5)ccc4cn3)ccn2)CC1', '94.9%'),
  ('COC1C=CCC(C)C(C)S(=O)(=O)NC(=O)c2ccc3c(c2)N(CC2CCC21)CC1(CCCc2cc(Cl)ccc21)CO3 (stereo not given) + CN1CCN(c2cc(C(=O)Nc3cc4cc(-c5cnn(C)c5)ccc4cn3)ccn2)CC1', '96.3%'),
  ('C=C(F)C(=O)N1CCN(c2nc(OCC3CCCN3C)nc3c2CCN(c2cccc4cccc(Cl)c24)C3)CC1CC#N (stereo not given) + CN1CCN(c2cc(C(=O)Nc3cc4cc(-c5cnn(C)c5)ccc4cn3)ccn2)CC1', '95.2%'),
  ('Nc1ccn(C2OC(CO)C(O)C2(F)F)c(=O)n1 (stereo not given) + CNC(=O)c1ccc(Nc2nc(OC3CCCC3)c3c(-c4ccc5nc(C)oc5c4)c[nH]c3n2)c(OC)c1', '6.2%');

====

- System: 876862-298-R-J1-PDC complex spheroids, viability % test/control
- test.name: Anticancer human tumor 876862-298-R-J1-PDC cell line growth inhibition [CLK]; active = viability on the fitted dose curve at most 10% of control; inactive = the rest;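 note: spheroids exposed to drugs for 7 days before readout; 100% = DMSO vehicle control wells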
- experimental.conditions: second compound 0.316 µM; first compound 3.16 µM
Outcome codes: YES for active, NO for inactive

INSERT INTO results (compound, class_name) VALUES
  ('CC1COCCN1c1cc(C2(S(C)(=N)=O)CC2)nc(-c2ccnc3[nH]ccc23)n1 (stereo not drawn) + CNC(=O)c1ccc(Nc2nc(OC3CCCC3)c3c(-c4ccc5nc(C)oc5c4)c[nH]c3n2)c(OC)c1', 'NO'),
  ('C=C(F)C(=O)N1CCN(c2nc(OCC3CCCN3C)nc3c2CCN(c2cccc4cccc(Cl)c24)C3)CC1CC#N (stereo not drawn) + CNC(=O)c1ccc(Nc2nc(OC3CCCC3)c3c(-c4ccc5nc(C)oc5c4)c[nH]c3n2)c(OC)c1', 'NO'),
  ('C=CC(=O)N1CCN(c2nc(=O)n(-c3c(C)ccnc3C(C)C)c3nc(-c4c(O)cccc4F)c(F)cc23)C(C)C1 (stereo not drawn) + CNC(=O)c1ccc(Nc2nc(OC3CCCC3)c3c(-c4ccc5nc(C)oc5c4)c[nH]c3n2)c(OC)c1', 'NO'),
  ('CC(CO)NC(=O)c1cc(-c2ccc(Cl)cc2)nn(-c2cnn(C)c2)c1=O (stereo not drawn) + CN1CCN(c2cc(C(=O)Nc3cc4cc(-c5cnn(C)c5)ccc4cn3)ccn2)CC1', 'YES'),
  ('CC(Nc1ccc2c(c1)OCCn1cc(N3C(=O)OCC3C(F)F)nc1-2)C(N)=O (stereo not drawn) + CNC(=O)c1ccc(Nc2nc(OC3CCCC3)c3c(-c4ccc5nc(C)oc5c4)c[nH]c3n2)c(OC)c1', 'NO'),
  ('CC(Nc1ccc2c(c1)OCCn1cc(N3C(=O)OCC3C(F)F)nc1-2)C(N)=O (stereo not drawn) + CN1CCN(c2cc(C(=O)Nc3cc4cc(-c5cnn(C)c5)ccc4cn3)ccn2)CC1', 'YES'),
  ('CC1(C)CCC(CN2CCN(c3ccc(C(=O)NS(=O)(=O)c4ccc(NCC5CCOCC5)c([N+](=O)[O-])c4)c(Oc4cnc5[nH]ccc5c4)c3)CC2)=C(c2ccc(Cl)cc2)C1 + CN1CCN(c2cc(C(=O)Nc3cc4cc(-c5cnn(C)c5)ccc4cn3)ccn2)CC1', 'YES'),
  ('CC1(C)CCC(CN2CCN(c3ccc(C(=O)NS(=O)(=O)c4ccc(NCC5CCOCC5)c([N+](=O)[O-])c4)c(Oc4cnc5[nH]ccc5c4)c3)CC2)=C(c2ccc(Cl)cc2)C1 + CNC(=O)c1ccc(Nc2nc(OC3CCCC3)c3c(-c4ccc5nc(C)oc5c4)c[nH]c3n2)c(OC)c1', 'NO'),
  ('O=c1[nH]cc(F)c(=O)[nH]1 + CN1CCN(c2cc(C(=O)Nc3cc4cc(-c5cnn(C)c5)ccc4cn3)ccn2)CC1', 'YES'),
  ('COc1cccc2c1C(=O)c1c(O)c3c(c(O)c1C2=O)CC(O)(C(=O)CO)CC3OC1CC(N)C(O)C(C)O1 (stereo not drawn) + CNC(=O)c1ccc(Nc2nc(OC3CCCC3)c3c(-c4ccc5nc(C)oc5c4)c[nH]c3n2)c(OC)c1', 'YES'),
  ('COC1C=CCC(C)C(C)S(=O)(=O)NC(=O)c2ccc3c(c2)N(CC2CCC21)CC1(CCCc2cc(Cl)ccc21)CO3 (stereo not drawn) + CN1CCN(c2cc(C(=O)Nc3cc4cc(-c5cnn(C)c5)ccc4cn3)ccn2)CC1', 'YES'),
  ('C=CC(=O)N1CCN(c2nc(=O)n(-c3c(C)ccnc3C(C)C)c3nc(-c4c(O)cccc4F)c(F)cc23)C(C)C1 (stereo not drawn) + CN1CCN(c2cc(C(=O)Nc3cc4cc(-c5cnn(C)c5)ccc4cn3)ccn2)CC1', 'YES'),
  ('C#Cc1c(F)ccc2cc(O)cc(-c3ncc4c(N5CC6CCC(C5)N6)nc(OCC56CCCN5CC(F)C6)nc4c3F)c12 (stereo not drawn) + CNC(=O)c1ccc(Nc2nc(OC3CCCC3)c3c(-c4ccc5nc(C)oc5c4)c[nH]c3n2)c(OC)c1', 'NO');

The origin of these recorded values is PubChem BioAssay AID2060607.
